Target: SARS-COV-2 RBD extracellular domain expressed with a C-terminal myc-myc-hexahistidine tag (SARS-COV-2 RBD-mmH) (SARS-CoV-2)
Assay: SPR Biacore, mAb captured on anti-hFc, RBD-mmH analyte, 37 C
experimentalReadout: kon (M⁻¹ s⁻¹)
Give just the number in M⁻¹ s⁻¹; leave the unit off.

Please review the entries below; each comes with its answer.
# binder, kon / M⁻¹ s⁻¹
measured = [
    ("mAb15160 (antibody, V domains shown) VH: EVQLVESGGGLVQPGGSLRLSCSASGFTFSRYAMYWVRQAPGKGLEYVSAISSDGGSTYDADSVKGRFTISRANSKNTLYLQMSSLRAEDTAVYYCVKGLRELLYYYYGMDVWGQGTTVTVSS VL: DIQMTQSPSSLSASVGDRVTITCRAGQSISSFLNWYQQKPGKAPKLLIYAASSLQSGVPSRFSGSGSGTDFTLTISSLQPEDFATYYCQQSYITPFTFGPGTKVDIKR", 250000),
    ("mAb14289 (antibody, V domains shown) VH: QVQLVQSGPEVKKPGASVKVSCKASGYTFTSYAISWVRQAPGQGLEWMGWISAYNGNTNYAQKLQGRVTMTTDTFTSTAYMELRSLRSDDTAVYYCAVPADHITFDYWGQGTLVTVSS VL: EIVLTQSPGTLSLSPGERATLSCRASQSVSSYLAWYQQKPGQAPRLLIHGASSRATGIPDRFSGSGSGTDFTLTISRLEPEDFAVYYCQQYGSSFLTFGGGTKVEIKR", "1.2e+06"),
    ("mAb14315 (antibody, V domains shown) VH: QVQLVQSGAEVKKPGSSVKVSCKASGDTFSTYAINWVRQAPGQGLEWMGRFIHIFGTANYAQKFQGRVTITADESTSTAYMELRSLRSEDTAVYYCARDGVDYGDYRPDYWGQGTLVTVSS VL: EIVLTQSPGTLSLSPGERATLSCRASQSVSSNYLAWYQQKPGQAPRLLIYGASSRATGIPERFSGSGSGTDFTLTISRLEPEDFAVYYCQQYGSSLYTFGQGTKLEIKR", 435000),
    ("mAb15162 (antibody, V domains shown) VH: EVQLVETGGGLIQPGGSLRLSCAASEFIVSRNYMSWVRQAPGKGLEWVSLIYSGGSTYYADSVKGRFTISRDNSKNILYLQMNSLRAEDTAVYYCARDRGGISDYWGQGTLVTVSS VL: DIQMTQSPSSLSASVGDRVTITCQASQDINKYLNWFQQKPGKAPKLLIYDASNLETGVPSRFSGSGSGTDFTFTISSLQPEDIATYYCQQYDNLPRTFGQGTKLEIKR", 103000),
]

### Prompt // lookup kon for mAb15166 (antibody, V domains shown) VH: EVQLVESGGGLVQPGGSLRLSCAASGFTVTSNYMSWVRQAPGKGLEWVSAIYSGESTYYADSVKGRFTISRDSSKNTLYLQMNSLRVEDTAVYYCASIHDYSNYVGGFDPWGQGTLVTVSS VL: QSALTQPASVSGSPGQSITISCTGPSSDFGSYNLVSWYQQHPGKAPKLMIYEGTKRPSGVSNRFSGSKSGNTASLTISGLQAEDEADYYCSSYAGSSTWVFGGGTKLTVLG
### Response 350000
